# IC50 per entry
# tgt: HIS-tagged RORγ-LBD (Homo sapiens, UniProt P51449)
# Construct: HIS-tagged RORγ-LBD was recombinantly expressed in SF9 cells using a baculovirus expression system; made in house; host or cells: SF9 cells, baculovirus; crude lysate used
# Sequence (P51449 269-508 limits assumed): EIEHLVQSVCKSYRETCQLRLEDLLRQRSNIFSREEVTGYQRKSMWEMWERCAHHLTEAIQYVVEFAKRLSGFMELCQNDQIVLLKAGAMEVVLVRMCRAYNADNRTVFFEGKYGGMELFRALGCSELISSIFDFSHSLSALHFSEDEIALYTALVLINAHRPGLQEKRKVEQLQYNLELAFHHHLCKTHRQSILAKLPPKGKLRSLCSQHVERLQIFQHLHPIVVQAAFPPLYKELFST
# experimental.protocol: TR-FRET assay (Protocol B), RORγ-LBD lysate / biotinylated SRC1-2 LXXLL peptide
# Assay type: biochemical
# assay.conditions: unpurified RORγ-LBD lysate ~10 nM, SRC1-2 peptide 450 nM

COc1cc(-c2nn(C(=O)c3c(Cl)cccc3C(F)(F)F)c3cccc(F)c23)c(F)cc1C(=O)O [Example 24Y]
< 0.05 µM
Cc1cc(-c2nn(C(=O)c3c(Cl)cccc3C(F)(F)F)c3cccc(F)c23)ccc1C(=O)O [Example 24P]
< 0.05 µM
O=C(O)c1ccc(-c2nn(C(=O)c3c(Cl)cccc3C(F)(F)F)c3ccccc23)cc1F [Example 24AQ]
< 0.05 µM

API: the following record is the query input.
Fill in the blank: the reported IC50 of O=C(O)c1ccc(-c2nn(C(=O)c3c(Cl)cccc3C(F)(F)F)c3cccc(C(F)(F)F)c23)cc1 [Example 24AO] is ____.
< 0.05 µM
